Quick list: pIC50 per entry.
Assayed Target: Hematopoietic PGD2 Synthase (Homo sapiens, UniProt O60760)
Sequence (O60760 whole entry): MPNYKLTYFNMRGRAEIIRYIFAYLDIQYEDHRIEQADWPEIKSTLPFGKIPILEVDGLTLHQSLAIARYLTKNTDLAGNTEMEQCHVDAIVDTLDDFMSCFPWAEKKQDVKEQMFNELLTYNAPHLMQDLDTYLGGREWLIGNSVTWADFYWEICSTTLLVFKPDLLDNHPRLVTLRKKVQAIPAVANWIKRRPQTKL
Procedure Details: Fluorescence Polarization Assay or EIA assay (which one not stated)
Assay type: biochemical
Condition Notes: assay not assigned in b678 (Fluorescence Polarization or EIA)
Units for pIC50: none; it is -log10 of a concentration expressed in mol/L.

{"Molecule": "O=C(NCc1ccc(N2CCOCC2)cc1)c1cnc(-c2ccccc2)nc1", "pIC50": 7.92}

// next entry
Prompt line: GET /values?readout=pIC50&item= CCOP(=O)(OCC)C(NC(=O)c1cnc(-c2ccccc2)nc1)c1ccccc1 (stereo not shown)
Response line: 7.32

* * *

Record: IC50 reported on UniProt O60760.
Report only the number, with the unit nM understood.

Look over these answered cases.
{"Molecule": "COCCCNS(=O)(=O)c1cccc(CNC(=O)c2cnc(-c3cccc(F)c3)nc2)c1 [Example 51]", "Assayed Target": "UniProt O60760", "Reported": 37}
{"Molecule": "CN(C)CCNS(=O)(=O)c1cccc(CNC(=O)c2cnc(-c3cccc(F)c3)nc2)c1 [Example 63]", "Assayed Target": "UniProt O60760", "Reported": 45}
{"Molecule": "NS(=O)(=O)c1cccc(CNC(=O)c2cnc(-c3cccc(F)c3)nc2)c1 [Example 55]", "Assayed Target": "UniProt O60760", "Reported": 31}
{"Molecule": "Cc1nc(-c2cccc(F)c2)ncc1C(=O)NCc1cccc(CS(=O)(=O)NC(C)C)c1 [Example 71]", "Assayed Target": "UniProt O60760", "Reported": 34}
{"Molecule": "CCNS(=O)(=O)c1cccc(CNC(=O)c2cnc(-c3cccc(F)c3)nc2)c1 [Example 45]", "Assayed Target": "UniProt O60760", "Reported": 58}

Prompt line: // map Cc1nc(-c2cccc(F)c2)ncc1C(=O)NCc1cccc(CNS(C)(=O)=O)c1 [Example 68] to recorded IC50 (system: UniProt O60760)
Response line: 48.5

Prompt line: Missing value: IC50, UniProt O60760, entry O=C(NCc1cccc(S(=O)(=O)NCCN2CCOCC2)c1)c1cnc(-c2cccc(F)c2)nc1 [Example 56] . Fill in?
Response line: 37

Prompt line: What is its IC50 for UniProt O60760? Entry: CN(C)CC(C)(C)CNS(=O)(=O)c1cccc(CNC(=O)c2cnc(-c3cccc(F)c3)nc2)c1 [Example 65]
Response line: 35

* * *

Form field: IC50 (one value per entry).
Assayed Target: Hematopoietic PGD2 Synthase (Homo sapiens)
Procedure Details: Fluorescence Polarization Assay or EIA assay (which one not stated)
Format: biochemical
Condition Notes: assay not assigned in b678 (Fluorescence Polarization or EIA)
Experimental: The compounds of the present invention can be tested for enzymatic inhibiting activity against PGD2 Synthase according to either one of the following assays. Assay 1: Fluorescence Polarization Assay As described in PCT publication WO 2004/016223, Example II. Assay 2: Enzyme Immunoassay (EIA) Method • 2. Dilute 2 μL of each above concentration of compound to 38 μL of reaction buffer in 96-well plates and mix. IV. Enzyme and Substrate Solution Preparation • 1. […]
# value in µM; strip the unit string

Before answering, review these 7 worked examples.
{"Structure Notation": "Cc1nc(-c2ncc(C(=O)NC3CCOCC3)cn2)no1", "Endpoint Label": "IC50", "Reported": 0.514}
{"Structure Notation": "O=C(NCc1cccc(S(=O)(=O)NCCc2c[nH]cn2)c1)c1cnc(-c2cccc(F)c2)nc1", "Endpoint Label": "IC50", "Reported": 0.061}
{"Structure Notation": "O=C(Nc1ccc2nc(CCN3CCCC3)oc2c1)c1cnc(-c2ccccc2)nc1", "Endpoint Label": "IC50", "Reported": 0.018}
{"Structure Notation": "O=C(Nc1cc[nH]c(=O)n1)c1cnc(-c2ccccc2)nc1", "Endpoint Label": "IC50", "Reported": 0.015}
{"Structure Notation": "CCOP(=O)(Cc1ccc(NC(=O)c2cnc(-c3ccccc3)nc2)cc1)OCC", "Endpoint Label": "IC50", "Reported": 0.038}
{"Structure Notation": "CCOP(=O)(CCCCNC(=O)c1cnc(-c2ccccc2)nc1)OCC", "Endpoint Label": "IC50", "Reported": 0.0235}
{"Structure Notation": "O=C(NCc1ccc2occc2c1)c1cnc(-c2ccccc2)nc1", "Endpoint Label": "IC50", "Reported": 0.007}

Turning to the following molecule.
Prompt line: Return reported IC50; argument: "NC(=O)c1ccc(CNC(=O)c2cnc(-c3ccccc3)nc2)cc1"
Response line: 0.016
